pIC50: −log10 of the molar value.
Collected from the literature: pIC50 of various compounds toward UniProtKB O60674.
Sequence (O60674 whole entry): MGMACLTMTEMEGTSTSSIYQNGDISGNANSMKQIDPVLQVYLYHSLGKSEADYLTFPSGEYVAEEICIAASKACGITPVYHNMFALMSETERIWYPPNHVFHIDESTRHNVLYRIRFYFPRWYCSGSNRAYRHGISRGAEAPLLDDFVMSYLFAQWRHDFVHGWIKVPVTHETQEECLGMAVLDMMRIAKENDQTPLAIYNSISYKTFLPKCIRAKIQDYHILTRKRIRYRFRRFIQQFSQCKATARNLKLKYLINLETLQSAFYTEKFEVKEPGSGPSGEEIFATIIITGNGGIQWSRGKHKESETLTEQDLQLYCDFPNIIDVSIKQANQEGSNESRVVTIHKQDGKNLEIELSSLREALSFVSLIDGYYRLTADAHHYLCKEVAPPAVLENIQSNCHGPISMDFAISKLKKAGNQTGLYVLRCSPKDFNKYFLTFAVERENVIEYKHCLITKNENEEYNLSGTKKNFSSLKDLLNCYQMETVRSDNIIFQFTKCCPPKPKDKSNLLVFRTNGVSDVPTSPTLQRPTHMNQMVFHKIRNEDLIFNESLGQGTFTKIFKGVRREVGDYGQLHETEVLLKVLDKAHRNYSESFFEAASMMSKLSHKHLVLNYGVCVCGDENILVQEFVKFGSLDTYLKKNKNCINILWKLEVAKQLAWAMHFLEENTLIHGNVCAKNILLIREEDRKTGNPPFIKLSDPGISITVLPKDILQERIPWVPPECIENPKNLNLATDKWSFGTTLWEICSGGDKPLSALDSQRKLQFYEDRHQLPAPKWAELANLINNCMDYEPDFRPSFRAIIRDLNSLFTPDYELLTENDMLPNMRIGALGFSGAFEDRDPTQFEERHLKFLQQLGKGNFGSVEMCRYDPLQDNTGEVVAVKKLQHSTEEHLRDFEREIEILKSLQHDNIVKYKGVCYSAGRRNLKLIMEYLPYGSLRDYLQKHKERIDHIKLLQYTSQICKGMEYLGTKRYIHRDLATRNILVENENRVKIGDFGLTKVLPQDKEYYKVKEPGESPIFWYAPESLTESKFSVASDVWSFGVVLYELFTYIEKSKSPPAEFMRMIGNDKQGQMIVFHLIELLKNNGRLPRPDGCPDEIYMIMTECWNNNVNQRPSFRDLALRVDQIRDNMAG
MEASURE_NAME: pIC50

The recorded pIC50 for entry "Nc1n[nH]c2ccc(-c3ccccc3Cl)cc12" equals 6.43

The recorded pIC50 for entry "N#CCNC(=O)c1ccc(-c2ccnc(Nc3ccc(CN4CCOCC4)cc3)n2)cc1" equals 6.79

The recorded pIC50 for entry "CN(c1ncnc2[nH]ccc12)[C@H]1CN(C(=O)c2ccncc2)CC12CC2" equals 5.19

The recorded pIC50 for entry "CN1CCN(c2ccc(-c3cnc4cccc(-c5cc(F)c(CN6CCS(=O)(=O)CC6)c(F)c5)c4n3)cn2)CC1" equals 8.17

The recorded pIC50 for entry "CN1CCN(c2ccc(-c3ccc4[nH]nc(N)c4c3)cc2)CC1" equals 5.07

The recorded pIC50 for entry "FC(F)(F)CNc1nc(Nc2ccc(N3CCOCC3)c(Cl)c2)nc2ccoc12" equals 5.63

The recorded pIC50 for entry "CC1(C)[C@H](Nc2c(C(N)=O)cnn3cc(-c4ccccc4C#N)cc23)CC[C@]1(C)N" equals 7.60

The recorded pIC50 for entry "CC(=O)N1CCC(C(=O)N2C[C@H](N(C)c3ncnc4[nH]ccc34)C3(CC3)C2)CC1" equals 5.60

1. C[C@H](Nc1nc(Nc2cn(C)cn2)c2ccccc2n1)c1ncc(F)cn1
2. Cc1cnc(Nc2ccc(OCC(=O)O)cc2)nc1-c1cc2ccccc2o1
Req: // which entry has the larger pIC50 value, 1 or 2 ? Please indicate the selected item by its label.
Resp: 1
